Origin of measurements: patent US20240383898A1

RECORDED_ENDPOINT: IC50

State measured IC50 of the compound C[C@@H](O)c1nc2cnc3[nH]ccc3c2n1[C@H]1CCN(C(F)(F)C(F)(F)C(F)(F)C(F)(F)F)C1 [LXS101] with UniProt P23458.
Sequence (P23458 whole entry, species assumed): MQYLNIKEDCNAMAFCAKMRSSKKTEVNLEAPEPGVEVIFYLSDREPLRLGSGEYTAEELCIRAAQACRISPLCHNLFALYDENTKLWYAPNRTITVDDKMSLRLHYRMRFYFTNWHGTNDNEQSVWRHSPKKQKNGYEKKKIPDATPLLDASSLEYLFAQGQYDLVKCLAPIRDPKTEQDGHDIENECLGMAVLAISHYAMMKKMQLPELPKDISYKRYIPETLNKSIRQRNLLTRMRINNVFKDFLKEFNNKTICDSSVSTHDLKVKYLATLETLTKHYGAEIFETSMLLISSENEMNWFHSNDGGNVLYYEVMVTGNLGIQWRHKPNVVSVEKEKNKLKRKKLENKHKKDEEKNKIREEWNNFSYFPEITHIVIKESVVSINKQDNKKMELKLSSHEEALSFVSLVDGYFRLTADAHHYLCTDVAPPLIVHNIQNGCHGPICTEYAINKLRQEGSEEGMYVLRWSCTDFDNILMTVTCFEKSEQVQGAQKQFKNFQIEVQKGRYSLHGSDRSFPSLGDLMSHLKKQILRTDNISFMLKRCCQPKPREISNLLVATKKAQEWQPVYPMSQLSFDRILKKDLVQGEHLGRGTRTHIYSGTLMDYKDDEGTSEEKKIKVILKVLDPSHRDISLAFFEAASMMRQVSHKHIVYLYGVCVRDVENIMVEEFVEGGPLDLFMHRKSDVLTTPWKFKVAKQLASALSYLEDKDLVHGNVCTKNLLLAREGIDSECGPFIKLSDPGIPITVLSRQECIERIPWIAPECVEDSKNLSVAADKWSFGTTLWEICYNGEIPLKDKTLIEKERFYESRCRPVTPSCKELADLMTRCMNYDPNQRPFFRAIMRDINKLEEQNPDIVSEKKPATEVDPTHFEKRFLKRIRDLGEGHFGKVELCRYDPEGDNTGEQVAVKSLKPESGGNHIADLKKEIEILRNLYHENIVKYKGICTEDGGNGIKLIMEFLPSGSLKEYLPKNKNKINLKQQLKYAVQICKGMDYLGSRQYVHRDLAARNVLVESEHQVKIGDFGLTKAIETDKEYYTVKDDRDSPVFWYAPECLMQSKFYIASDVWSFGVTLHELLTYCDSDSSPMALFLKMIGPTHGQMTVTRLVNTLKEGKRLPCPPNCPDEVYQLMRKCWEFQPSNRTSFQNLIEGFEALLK
< 10 nM

State measured IC50 of the compound C[C@@H](O)c1nc2cnc3[nH]ncc3c2n1[C@@H]1CN(CCCC#N)CC1F (stereo partly drawn) [LXS93] with UniProt P23458.
< 10 nM

State measured IC50 of the compound N#C[C@H]1CC[C@H](n2c(-c3ccc(C(F)(F)F)cc3)nc3cnc4[nH]ccc4c32)CC1 (stereo in doubt) [LXS37] with UniProt P23458.
100 to 1000 nM

State measured IC50 of the compound O=C(NCC(F)(F)F)N1CCC(n2c(-c3ccc(CO)o3)nc3cnc4[nH]ccc4c32)C1 (stereo in doubt) [LXS23] with UniProt P23458.
100 to 1000 nM

State measured IC50 of the compound CCCS(=O)(=O)N1CCC(n2c([C@@H](C)O)nc3cnc4[nH]ccc4c32)C1 (stereo partly drawn) [LXS05] with UniProt P23458.
10 to 100 nM

State measured IC50 of the compound N#CCCCn1cc(-n2c(C3CCC3)nc3cnc4[nH]ccc4c32)cn1 [LXS107] with UniProt P23458.
100 to 1000 nM

State measured IC50 of the compound Cc1ccc(-c2nc3cnc4[nH]ccc4c3n2-c2cnn(CCCC#N)c2)o1 [LXS104] with UniProt P23458.
10 to 100 nM

State measured IC50 of the compound C[C@@H](O)c1nc2cnc3[nH]ccc3c2n1C1CCN(S(=O)(=O)c2ccc(-c3ccccc3)cc2)C1 (stereo partly drawn) [LXS09] with UniProt P23458.
100 to 1000 nM

State measured IC50 of the compound N#C[C@H]1CC[C@H](n2c(-c3ccc(O)cc3F)nc3cnc4[nH]ccc4c32)CC1 (stereo in doubt) [LXS39] with UniProt P23458.
10 to 100 nM

----------
pIC50: −log10 of the molar value.
Record type: pIC50 measurement. Applies to: JAK2 (Homo sapiens)

Give recorded pIC50. CSc1ccc(-c2nc3cnc4[nH]ccc4c3n2C2CCC(C#N)CC2)cc1 (stereo in doubt) [LXS42]
6.00 to 7.00

Give recorded pIC50. C[C@@H](O)c1nc2cnc3[nH]ccc3c2n1[C@H]1CCN(S(=O)(=O)CCC(F)(F)F)C1 [LXS102]
6.00 to 7.00

Give recorded pIC50. N#C[C@H]1CC[C@H](n2c(-c3cnc(N)s3)nc3cnc4[nH]ccc4c32)CC1 (stereo in doubt) [LXS27]
7.00 to 8.00

Give recorded pIC50. CCCS(=O)(=O)N1CCC(n2c(-c3cccnc3N)nc3cnc4[nH]ccc4c32)C1 (centres unmarked) [LXS47]
6.00 to 7.00

Give recorded pIC50. Cc1ccc(-c2nc3cnc4[nH]ccc4c3n2C2CCC(C#N)CC2)s1 (stereo in doubt) [LXS28]
7.00 to 8.00

Give recorded pIC50. Cc1ccc(-c2nc3cnc4[nH]ccc4c3n2C2CCC(C#N)CC2)o1 (stereo in doubt) [LXS29]
7.00 to 8.00

Give recorded pIC50. C[C@@H](O)c1nc2cnc3[nH]ccc3c2n1[C@H]1CCN(CCCCCF)C1 [LXS73]
6.00 to 7.00

Give recorded pIC50. N#CCCCn1cc(-n2c(C3CC3)nc3cnc4[nH]ccc4c32)cn1 [LXS108]
7.00 to 8.00
